- system.name: human calcitonin receptor (Homo sapiens, UniProt P30988)
- Sequence (P30988 25-474): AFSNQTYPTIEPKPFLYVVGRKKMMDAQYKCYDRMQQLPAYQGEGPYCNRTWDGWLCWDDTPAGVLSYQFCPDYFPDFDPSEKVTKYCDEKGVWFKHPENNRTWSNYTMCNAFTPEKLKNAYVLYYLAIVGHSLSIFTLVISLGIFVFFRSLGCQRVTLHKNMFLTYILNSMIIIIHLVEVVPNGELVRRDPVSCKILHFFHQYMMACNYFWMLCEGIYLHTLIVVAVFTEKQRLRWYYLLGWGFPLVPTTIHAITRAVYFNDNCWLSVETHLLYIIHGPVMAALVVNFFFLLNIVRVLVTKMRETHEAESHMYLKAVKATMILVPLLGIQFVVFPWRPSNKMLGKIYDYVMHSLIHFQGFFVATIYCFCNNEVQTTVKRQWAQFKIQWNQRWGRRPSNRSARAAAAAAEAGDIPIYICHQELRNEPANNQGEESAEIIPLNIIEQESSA
- assay.name: CRE-luciferase assay for calcitonin mimetic activity
measurement.label: EC50 (µM)

COc1cc(CN2CCN(Cc3cc(Br)cc(Br)c3O)CC2)cc(OC)c1OC :: 66.9
COc1cc(CN2CCN(C(=O)Nc3cccc(C(F)(F)F)c3)CC2)cc(O)c1OC :: 43.2
COc1cc(CN2CCN(Cc3cc(Br)ccc3O)CC2)cc(Br)c1O :: 206
COc1cc(CN2CCN(Cc3ccc(OC)c(OC)c3OC)CC2)cc(I)c1O :: 291
